Cited source for all entries: PubChem BioAssay (NCI)

- Tested on: SF-268 CNS
- Protocol Summary: NCI-60 one-dose screen, 48 h (100 = growth as untreated, 0 = no growth, -100 = all killed)
- Reported Conditions: 10 µM unless noted
The panel holds about 83,000 compounds, 20% with a hit somewhere; the sample as a whole holds those more often. The source made the active and inactive calls. How the source made its calls: active means growth percent below 10; inactive means the rest.
Listed next: entries and their corresponding growth.

                                   compound  target_entity  quantity_kind       measurement
0  C=CCn1c(SCC(=O)Nc2ccc(C(=O)/C=C/c3cccc([N+](=O)[O-])c3)cc2)nnc1-c1c[nH]c2ccccc12     SF-268 CNS         growth    84% (inactive)
1  CCNC(=O)N1CCc2cc(OC)c(OCCc3ccc(OC)nc3)cc2C1c1ccc(OC)cc1C (centres undefined)     SF-268 CNS         growth  32.9% (inactive)
2  Cc1occc1-c1nc2s/c(=C/c3ccc(-c4cc(C(F)(F)F)ccc4Cl)o3)c(=O)n2n1     SF-268 CNS         growth  97.2% (inactive)
3  N/C(=N\C(N)=N\c1nc2ccccc2s1)c1ccc2ccccc2c1     SF-268 CNS         growth  78.9% (inactive)
4  CC(=O)Nc1cccc(Nc2nc(N[C@H](C)c3ccccc3)c3ccccc3n2)c1     SF-268 CNS         growth  62.9% (inactive)
5  C#Cc1ccc(C(=O)NCc2ccc(/C=C/C(=O)c3nccn3C)cc2)cc1     SF-268 CNS         growth  13.5% (inactive)
6  COc1cc(-c2nn(C(C)(C)C)cc2-c2ccnc(NCCCNS(=O)(=O)c3cccc(F)c3)n2)ccc1Cl     SF-268 CNS         growth  56.7% (inactive)
7   COc1ccccc1C(=O)Nc1cccc2c1C(=O)C(=O)C=C2     SF-268 CNS         growth    87% (inactive)

Query: Item N=c1c2cc(-c3ccccc3)oc2ncn1/N=C/c1ccc(Cl)cc1 with SF-268 CNS - growth?
Reply: 76.3% (inactive)

Query: What value of growth on SF-268 CNS does COc1cccc(/C=C(/C)c2ccc3cccc(OC)c3[o+]2)c1O have?
Reply: 95.3% (inactive)

---

- Test system: 786-0 renal
- Protocol Summary: NCI-60 one-dose screen, 48 h (100 = growth as untreated, 0 = no growth, -100 = all killed)
- Reported Conditions: 10 µM unless noted
This is part of a sample that, as a whole, favours compounds with a hit. Of some 83,000 tested, about 20% had one in any assay.
Quantity Kind: growth (%)
Express it in %; write the number only.

// below: answered molecules
>>> df
                                   molecule  target_entity  measurement
0  CNC(=O)c1cc(Oc2ccc3nc(NC(=O)c4cc(N5CCOCC5)cc(C(F)(F)F)c4)sc3c2)ccn1    786-0 renal         80.3
1  N/C(=N\C(N)=N\c1nc2ccccc2s1)c1ccc(C(F)(F)F)cc1    786-0 renal           93
2  CN(C)CCNC(=O)c1ccc(-c2nc3ccc4[nH]ncc4c3c3c2CCC3)cc1    786-0 renal           12

Query: Reported growth, molecule C#Cc1ccc(C(=O)NCc2ccc(/C=C/C(=O)c3nccn3C)cc2)cc1 : ____
Reply: 19.3
